Origin of values: patent US12712053B2

- ASSAY_NAME: in vitro
- EXPERIMENTAL_PARAMETERS: human, HEK295 cells
VALUE_TYPE: viability at 2.5 % ethanol
Write your answer as a measured quantity: the number, then the unit.

Output measured viability at 2.5 % ethanol for this item: CCO
68%

* * *

- ASSAY_NAME: in vitro
- EXPERIMENTAL_PARAMETERS: human, HEK295 cells
VALUE_TYPE: viability at 7.5 % ethanol (%)
Numbers only, in %.

Output measured viability at 7.5 % ethanol for this item: CCO
22.5

* * *

- ASSAY_NAME: in vitro
- EXPERIMENTAL_PARAMETERS: human, HEK295 cells
VALUE_TYPE: viability at 5 % ethanol (%)
Answers are plain numbers, in %.

Output measured viability at 5 % ethanol for this item: CCO
65.5
